target: T1, 4H3162-AA
T1 chain: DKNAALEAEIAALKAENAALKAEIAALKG
procedure-details: two-hybrid library CCmax;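 also: natural log of median RNA to DNA barcode read ratio; higher means stronger binding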
assay-conditions: mean of both orientations
property-measured: interaction score

A = DENAALKAKIAALKAENAALEAEIAALKG [4H1874-AA]
B = DKNAALEAEIAALEAKNAALKAKIAALEG [4H3133-AA]
C = DKIAALKAEIAALEAKNAALKAENAALKG [4H2620-AA]
D = DENAALKAEIAALKAENAALKAKIAALEG [4H1629-AA]
Query: Can you order these entries from above by interaction score? Start with the largest number and work down. Please list each label once, in the requested order.
Response: A, D, B, C
